assay: 3T3 Neutral Red uptake cytotoxicity and phototoxicity assay; details: mouse, Balb/c 3T3 fibroblasts (clone 31), Viability (%), +Irr, 1000 μg/mL
readout.kind: viability at 82 min, 1000 μg/mL

> print(dat)
                                   molecule  observed
1  FC(F)(F)C1(c2ccc(C(c3ccc(C4(C(F)(F)F)N=N4)cc3)(C(F)(F)F)C(F)(F)F)cc2)N=N1 [BondLynx]      105%

====

test: 3T3 Neutral Red uptake cytotoxicity and phototoxicity assay; conditions: mouse, Viability (%), –Irr, 0.01 μg/mL
readout.kind: viability at 82 min, 0.01 μg/mL (%)

> print(dat)
                            compound                     readout.kind  units.of.measure  observed
1  c1ccc2cc3ccccc3cc2c1 [anthracene]  viability at 82 min, 0.01 μg/mL                 %       103
